Experiment: Cmax in Sprague-Dawley rat plasma at 2.0 mg/kg, po administered as single dose by LC-MS/MS analysis
Format: ADME, organism-based
Design: dose 2 mg/kg, route oral
recorded.metric: Cmax (ng/mL)
# output: bare number, implied unit ng/mL

Task: Could you tell me which Cmax is on file for "O=C(N[C@H]1CC[C@H](CCN2CCN(c3nsc4ccccc34)CC2)CC1)c1ccco1" ?
Result: 18.4

* * *

Experiment: Tmax in Sprague-Dawley rat plasma at 2 mg/kg, po administered as single dose by LC-MS/MS analysis
Assay type: ADME, organism-based
recorded.metric: Tmax (min)
Give the number; min is assumed, so skip it.

Task: If you can, please state the reported Tmax value of "O=C(N[C@H]1CC[C@H](CCN2CCN(c3nsc4ccccc34)CC2)CC1)c1ccco1" .
Result: 30

Ref: ChEMBL document CHEMBL3872208
